# credit: patent US20250136607A1

Each entry below carries its recorded IC50.
molecular target: Protein arginine deiminase 4 (PAD4) (Homo sapiens); experiment: PAD4 ammonia release assay; format: biochemical; conditions: PAD4 ammonia release assay, BAEE substrate, 60 min at RT; read-out: Average IC50 Abs
Sequence (Q9UM07 whole entry): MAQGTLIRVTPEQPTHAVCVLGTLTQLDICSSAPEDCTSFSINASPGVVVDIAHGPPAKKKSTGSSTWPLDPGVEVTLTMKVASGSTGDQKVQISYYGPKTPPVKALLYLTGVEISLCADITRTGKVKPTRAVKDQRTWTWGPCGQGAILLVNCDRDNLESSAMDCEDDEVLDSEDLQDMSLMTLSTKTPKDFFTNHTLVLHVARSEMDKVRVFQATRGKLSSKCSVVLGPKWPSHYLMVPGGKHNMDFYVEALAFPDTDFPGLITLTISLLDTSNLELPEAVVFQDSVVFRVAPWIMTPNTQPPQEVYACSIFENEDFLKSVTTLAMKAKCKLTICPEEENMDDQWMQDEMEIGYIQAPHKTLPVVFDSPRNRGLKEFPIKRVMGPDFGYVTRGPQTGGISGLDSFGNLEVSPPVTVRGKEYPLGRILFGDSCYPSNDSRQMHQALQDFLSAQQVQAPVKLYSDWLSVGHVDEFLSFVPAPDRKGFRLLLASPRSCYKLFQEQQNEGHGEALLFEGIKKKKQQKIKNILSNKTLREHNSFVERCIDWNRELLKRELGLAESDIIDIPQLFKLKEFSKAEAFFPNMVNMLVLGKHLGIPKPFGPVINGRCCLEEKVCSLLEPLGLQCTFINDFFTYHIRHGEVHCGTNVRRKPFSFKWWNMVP

Past entries and their recorded results:
COc1cc(-n2cc3c(n2)CCC(N)C3)cc2nc(-c3cc4cccc5c4n3CCN5CCCO)n(C)c12 (stereo not drawn) : > 5000 nM
COc1cc(C(=O)N2CCC[C@@H](N)C2)cc2nc(-c3cc4cccc5c4n3CCN5CCCO)n(Cc3cnn(C)c3)c12 : 100 to 500 nM
COc1cc(C(=O)N2CCC[C@@H](N)C2)cc2nc(-c3cc4cccc5c4n3CCN5C3CC(NC(C)=O)C3)n(C)c12 (stereo partly drawn) : 500 to 5000 nM
COc1cc(C(=O)N2CCC[C@](C)(N)C2)cc2nc(-c3cc4cccc5c4n3CCN5CCCO)n(C)c12 : > 5000 nM
Cn1c(-c2cc3cccc4c3n2[C@@H](C2CC2)CN4)nc2cc(C(=O)N3C[C@H]4CC[C@@H]3[C@@H]4N)cc(F)c21 (single isomer, unassigned) : ≤ 100 nM

[ask] Fill blank: measured IC50 of the compound CCn1cc(Cn2c(-c3cc4cccc5c4n3CCN5CC(F)(F)F)nc3cc(C(=O)N4C[C@H](N)C[C@@H](F)C4)cc(F)c32)cn1 is ____.
[reply] 100 to 500 nM
